- measuredTarget: human plasma kallikrein (Homo sapiens, UniProt P03952)
- Sequence (P03952 391-638 limits assumed): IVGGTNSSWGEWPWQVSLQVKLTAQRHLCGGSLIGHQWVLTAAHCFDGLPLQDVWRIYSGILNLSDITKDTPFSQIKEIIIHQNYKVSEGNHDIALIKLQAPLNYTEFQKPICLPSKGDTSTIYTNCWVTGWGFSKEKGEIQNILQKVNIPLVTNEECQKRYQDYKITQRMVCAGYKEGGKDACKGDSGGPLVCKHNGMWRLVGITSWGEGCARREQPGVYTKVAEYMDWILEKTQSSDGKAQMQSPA
- Sequence (P03952 20-390 partner limits assumed): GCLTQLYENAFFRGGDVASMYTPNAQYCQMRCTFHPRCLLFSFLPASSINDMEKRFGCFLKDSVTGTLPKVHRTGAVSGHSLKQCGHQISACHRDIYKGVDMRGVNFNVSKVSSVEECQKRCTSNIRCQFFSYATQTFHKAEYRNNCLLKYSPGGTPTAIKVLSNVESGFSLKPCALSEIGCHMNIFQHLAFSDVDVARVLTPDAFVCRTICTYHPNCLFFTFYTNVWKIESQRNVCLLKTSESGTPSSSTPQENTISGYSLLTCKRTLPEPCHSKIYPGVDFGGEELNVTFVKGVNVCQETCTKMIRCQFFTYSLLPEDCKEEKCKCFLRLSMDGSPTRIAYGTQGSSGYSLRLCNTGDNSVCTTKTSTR
- measurementNotes: Kallikrein inhibition FLINT assay with quenched AMC peptide substrate Z-Gly-Pro-Arg-AMC (end point EP or kinetic KIN reads)
- Type: biochemical
- experimentalSetup: kinetic reads at 5 min intervals over 30 min; read-out: Kallikrein (KIN) IC50
outcomeMeasure: IC50 (nM)
Write down the numeric answer in nM and omit the unit.

Examples from the recorded data:
[2H]C([2H])([2H])OC([2H])([2H])CC(c1ccc(-c2c(-n3cc(C(F)(F)F)nn3)ccc(Cl)c2F)c[n+]1[O-])n1cc(-c2ccc(C(N)=O)c(F)c2)cn1 (single isomer, unassigned); 7.2
NC(=O)c1ccc(-c2cnn(C(CN3CCCC3=O)c3ccc(-c4c(-n5cc(C(F)(F)F)nn5)ccc(Cl)c4F)c[n+]3[O-])c2)cc1F (single isomer, unassigned) [Example P937]; 2.7
COCC[C@H](c1ccc(-c2c(-n3cnnn3)ccc(Cl)c2F)c[n+]1[O-])n1cc(-c2ccnn2C(F)F)cn1; 78.3

Now look at this one.
Task: Dear colleague, I am looking for the recorded IC50 of the following compound: CC(C)Oc1cc(C(CC2CC2)n2cc(-c3cnn(C)c(=O)c3)cn2)[n+]([O-])cc1-c1c(-n2cnnn2)ccc(Cl)c1F (stereo not shown)
Output: 571

---

- measuredTarget: human plasma kallikrein (Homo sapiens, UniProt P03952)
- measurementNotes: Kallikrein inhibition FLINT assay with quenched AMC peptide substrate Z-Gly-Pro-Arg-AMC (end point EP or kinetic KIN reads)
- Assay type: biochemical
- experimentalSetup: kinetic reads at 5 min intervals over 30 min; read-out: Kallikrein (KIN) IC50
// IC50 lookup, one value per entry
Give just the numeric value; µM need not be written.

Answered cases to consult:
CCC(c1cc(OC)c(-c2cc(Cl)ccc2C#N)c[n+]1[O-])n1cc(-c2ncnn2C(F)F)cn1 (stereo not shown) [Example Q54]; 0.753
[O-][n+]1cc(-c2c(-n3cnnn3)ccc(Cl)c2F)ccc1C(CC1CC1)n1cc(-c2scnc2C(F)(F)F)cn1 (stereo not shown) [Example P540]; 0.471
COC(=O)Nc1ccc(-c2cnn(C(CC3CC(C)(C)C3)c3ccc(-c4c(-n5cnnn5)ccc(Cl)c4F)c[n+]3[O-])c2)cc1 (stereo not shown) [Example P126]; 0.248

Task: Value lookup for IC50; key = CC(=O)N(C)CC(c1ccc(-c2c(-n3cnnn3)ccc(Cl)c2F)c[n+]1[O-])n1cc(-c2ccnc(C(F)(F)F)c2)cn1 (single isomer, unassigned) [Example P404]
Output: 0.0684

Task: Dear colleague, I am looking for the recorded IC50 of the following compound: [O-][n+]1ccc(-c2cnn(C(Cn3cccn3)c3ccc(-c4c(-n5cnnn5)ccc(Cl)c4F)c[n+]3[O-])c2)cc1C(F)F (single isomer, unassigned) [Example P339]
Output: 0.67

Task: Requested field: IC50. Item: [O-][n+]1cc(-c2c(-n3cnnn3)ccc(Cl)c2F)ccc1C(Cn1ccc(C2CCOCC2)n1)n1cc(-c2ccnc(C(F)(F)F)c2)cn1 (stereo not shown) [Example P419]
Output: 0.0363

Task: Bench note: what IC50 did NC(=O)C1CC1CC(c1ccc(-c2cc(Cl)ccc2-n2cnnn2)c[n+]1[O-])n1cc(-c2ccc(C(=O)O)cc2)cn1 (stereo not shown) [Example P113] show?
Output: 0.291

---

Reported values of IC50 for individual entries
- measuredTarget: human plasma kallikrein (Homo sapiens, UniProt P03952)
- measurementNotes: Kallikrein inhibition FLINT assay with quenched AMC peptide substrate Z-Gly-Pro-Arg-AMC (end point EP or kinetic KIN reads)
- Format: biochemical
- experimentalSetup: kinetic reads at 5 min intervals over 30 min; read-out: Kallikrein (KIN) IC50
// units = nM; emit number, no label

Known results for compounds:
O=C(O)c1ccc(-c2cnn(C(CC3CC3)c3ccc(-c4c(C(F)F)ccc(Cl)c4F)c[n+]3[O-])c2)cc1 (single isomer, unassigned) [Example Q13]; 97.1
[O-][n+]1cc(-c2c(-n3cc(Cl)nn3)ccc(Cl)c2F)ccc1[C@@H](Cn1cc(F)cn1)n1cc(-c2ccnn2C(F)F)cn1; 50.5

Attention now shifts to the item below.
Task: For the compound shown here, NC(=O)c1ccc(-c2cnn(C(Cc3nccs3)c3ccc(-c4c(-n5cc(C(F)(F)F)nn5)ccc(Cl)c4F)c[n+]3[O-])c2)cc1F (single isomer, unassigned) [Example P943] , give the reported IC50.
Output: 6.2

---

- measuredTarget: human plasma kallikrein (Homo sapiens, UniProt P03952)
- measurementNotes: Kallikrein inhibition FLINT assay with quenched AMC peptide substrate Z-Gly-Pro-Arg-AMC (end point EP or kinetic KIN reads)
- Format: biochemical
- experimentalSetup: kinetic reads at 5 min intervals over 30 min; read-out: Kallikrein (KIN) IC50
Catalogue of compounds with associated pIC50
Hey, just a heads up that pIC50 is the negative log base 10 of the concentration in molar.

Example results:
[O-][n+]1cc(-c2c(-n3cnnn3)ccc(Cl)c2F)ccc1C(CCOC(F)(F)F)n1cc(-c2ccncn2)cn1 (stereo not shown); 6.82
NC(=O)c1ccc(-c2cnn(C(CN3CCCC3=O)c3ccc(-c4c(-n5cc(C(F)(F)F)nn5)ccc(Cl)c4F)c[n+]3[O-])c2)cc1F (single isomer, unassigned) [Example P936]; 6.40
CCOC(=O)C1CC1CC(c1ccc(-c2cc(Cl)ccc2-n2cnnn2)c[n+]1[O-])n1cc(-c2ccc(C(=O)O)cc2)cn1 (stereo not shown) [Example P68]; 6.29

Task: What pIC50 appears in the records for this compound with human plasma kallikrein (Homo sapiens, UniProt P03952)? COC(=O)NC(C)c1ccc(-c2cnn(C(Cc3ccccc3)c3ccc(-c4cc(Cl)ccc4-n4cnnn4)c[n+]3[O-])c2)cc1 (stereo not shown)
Output: 7.55

---

- measuredTarget: human plasma kallikrein (Homo sapiens)
- measurementNotes: Kallikrein inhibition FLINT assay with quenched AMC peptide substrate Z-Gly-Pro-Arg-AMC (end point EP or kinetic KIN reads)
- Format: biochemical
- experimentalSetup: kinetic reads at 5 min intervals over 30 min; read-out: Kallikrein (KIN) IC50
outcomeMeasure: IC50 (nM)
Express it in nM; write the number only.

COC(=O)Nc1ccc(-c2cnn(C(Cc3ccn(C)n3)c3ccc(-c4c(-n5cnnn5)ccc(Cl)c4F)c[n+]3[O-])c2)cc1 (single isomer, unassigned) [Example P329]; 49.6
CCOc1cc(C(CC2CC2)n2cc(-c3cnn(C)c(=O)c3)cn2)[n+]([O-])cc1-c1c(-n2cnnn2)ccc(Cl)c1F (stereo not drawn); 151

Please turn your attention to the following entry.
Task: Any idea what IC50 was measured for Cn1cnc(Cl)c1-c1cnn([C@H](CC2CC2)c2ccc(-c3c(-n4cnnn4)ccc(Cl)c3F)c[n+]2[O-])c1 ?
Output: 185

All figures here come from patent US11814364B2.
